Where these numbers come from: ChEMBL document CHEMBL3351938

procedure-details: Clearance in mouse at 1 mg/kg, iv
Type: ADME, organism-based
Design: dose 1 mg/kg, route intravenous
test-parameters: in vivo
measured-metric: clearance (mL/min/kg)
Please state the figure in mL/min/kg; there is no need to write the unit.

Fill blank: measured clearance of the compound CCn1nccc1Oc1cc(CC2CCOCC2)cnc1NC(=O)NC is ____. 28.3

###

procedure-details: AUC in mouse at 10 mg/kg, po
Type: ADME, organism-based
Design: dose 10 mg/kg, route oral
test-parameters: plasma
measured-metric: AUC (µM·h)
Give the number; µM·h is assumed, so skip it.

Bench note: what AUC did CCn1nccc1Oc1cc(CC2CCOCC2)cnc1NC(=O)NC show? 13.3

###

procedure-details: Clearance in rat at 1 mg/kg, iv
Assay type: ADME, organism-based
Set-up: dose 1 mg/kg, route intravenous
test-parameters: in vivo
measured-metric: clearance (mL/min/kg)
Dear colleague, please return just the value in mL/min/kg, with no unit written.

Tell me the measured clearance of CCn1nccc1Oc1cc(CC2CCOCC2)cnc1NC(=O)NC , please. 25

###

procedure-details: Drug metabolism in rat liver microsomes assessed as compound turnover at 1 uM after 30 mins
Format: ADME
test-parameters: read-out: Drug metabolism
Entries and their metabolised at 0.5 h, 1 µM values follow.
Record the result as a number with its unit.

INSERT INTO results (molecular_string, endpoint_result) VALUES
  ('CCc1ncccc1Oc1cc(CC2CCCCC2)cnc1NC(=O)NC', '95%'),
  ('CCc1ncccc1Oc1cc(CCO)cnc1NC(=O)NC', '10%'),
  ('CCn1nccc1Oc1cc(CCCC(C)(C)O)cnc1NC(=O)NC', '10%'),
  ('CCc1ncccc1Oc1cc(CCCCO)cnc1NC(=O)NC', '33%'),
  ('CCn1nccc1Oc1cc(CCCCOC)cnc1NC(=O)NC', '31%');

Could you share which metabolised at 0.5 h, 1 µM value was measured for CCc1ncccc1Oc1cc(CC(C)C)cnc1NC(=O)NC ? 95%

###

assayed-system: UniProt:P35557
Sequence (P35557 whole entry): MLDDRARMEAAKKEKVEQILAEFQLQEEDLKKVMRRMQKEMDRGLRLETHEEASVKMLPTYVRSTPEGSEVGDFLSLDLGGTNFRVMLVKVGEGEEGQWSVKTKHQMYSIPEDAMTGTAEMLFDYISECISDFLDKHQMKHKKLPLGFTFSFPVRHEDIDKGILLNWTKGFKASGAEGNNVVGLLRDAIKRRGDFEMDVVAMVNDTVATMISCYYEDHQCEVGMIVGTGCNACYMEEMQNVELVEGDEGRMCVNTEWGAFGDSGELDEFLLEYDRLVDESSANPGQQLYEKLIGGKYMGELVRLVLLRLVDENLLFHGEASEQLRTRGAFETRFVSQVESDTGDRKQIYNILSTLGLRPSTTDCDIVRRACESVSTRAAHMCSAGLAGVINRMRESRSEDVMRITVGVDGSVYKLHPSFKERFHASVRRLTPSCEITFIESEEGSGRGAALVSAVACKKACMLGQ
procedure-details: Activation of human recombinant Glucokinase measured over 5 mins by G6-PD coupled assay in presence of 5 mM glucose
measured-metric: pEC50
Scale: negative log10 of molar concentration, which is what pEC50 denotes.

Below are worked cases with known answers.
INSERT INTO measurements (molecular_string, assayed_system, measured_metric, endpoint_result) VALUES
  ('CNC(=O)Nc1ncc(CC2CCOCC2)cc1Oc1ccnn1C(C)C', 'UniProt:P35557', 'pEC50', 5.56),
  ('CCn1nccc1Oc1cc(CCCC(C)(C)O)cnc1NC(=O)NC', 'UniProt:P35557', 'pEC50', 6.43),
  ('CCn1nccc1Oc1cc(C[C@H]2C[C@@H](O)C2)cnc1NC(=O)NC', 'UniProt:P35557', 'pEC50', 6.28),
  ('CCn1nccc1Oc1cc(C[C@H]2CC[C@@](C)(O)CC2)cnc1NC(=O)NC', 'UniProt:P35557', 'pEC50', 7.01),
  ('CCc1ncccc1Oc1cc(CCCOC)cnc1NC(=O)NC', 'UniProt:P35557', 'pEC50', 6.36);

Can you look up the measured pEC50 of CCn1nccc1Oc1cc(C[C@H]2C[C@H](O)C2)cnc1NC(=O)NC for me? 6.30

Cool, now CCn1nccc1Oc1cc(C[C@H]2CC[C@@H](O)CC2)cnc1NC(=O)NC 6.92

How about CCn1nccc1Oc1cc(CCCCOC)cnc1NC(=O)NC ? 6.34
